Listed here are molecules together with their documented half-life.
assay: Pharmacokinetic study of YCHD components and phase II metabolites in normal rats (UHPLC-MS/MS, sulfatase enzymolysis); format: in vivo, rat; conditions: rat, in vivo; Control group (normal rats), single oral YCHD 12 g/kg, plasma; read-out: t1/2z
Readout label: half-life (h)

[[record]]
molecule = "COC(=O)C1=CO[C@@H](O[C@@H]2O[C@H](CO)[C@@H](O)[C@H](O)[C@H]2O)[C@@H]2C(CO)=CC[C@H]12 [Geniposide]"
endpoint_value = 1.9

[[record]]
molecule = "COC(=O)C1=COC(OC2OC(CO)C(O)C(O)C2O)C2C(CO)=CC(O)C12 (centres unmarked) [Scandoside methyl ester]"
endpoint_value = 3.82


* * *

Listed here are compounds together with their documented Cmax reduced by, cholestatic model rats compared with normal rats.
test: Pharmacokinetic study of YCHD components and phase II metabolites in ANIT-induced cholestatic rats (UHPLC-MS/MS, sulfatase enzymolysis); type: in vivo, rat; conditions: single oral YCHD 12 g/kg
Readout label: Cmax reduced by, cholestatic model rats compared with normal rats (%)

[[record]]
compound = "CC(=O)c1ccc(O)cc1 [4-hydroxyacetophenone, 4-Hydroxyacetophenone]"
endpoint_value = 57.2

[[record]]
compound = "COC(=O)C1=CO[C@@H](O[C@@H]2O[C@H](CO[C@@H]3O[C@H](CO)[C@@H](O)[C@H](O)[C@H]3O)[C@@H](O)[C@H](O)[C@H]2O)[C@@H]2C(CO)=CC[C@H]12 [genipin-1-β-D-gentiobiodide, Genipin-1-β-D-gentiobiodide]"
endpoint_value = 39.5

[[record]]
compound = "O=C(O)c1cc(O)c2c(c1)C(=O)c1cccc(O)c1C2=O"
endpoint_value = 86.1

[[record]]
compound = "COC(=O)C1=COC(OC2OC(CO)C(O)C(O)C2O)C2C(CO)=CC(O)C12 (centres unmarked) [Scandoside methyl ester]"
endpoint_value = 26.3

[[record]]
compound = "O=C(O)/C=C/c1ccc(O)c(O)c1"
endpoint_value = 72.4


* * *

assay: Pharmacokinetic study of YCHD components and phase II metabolites in normal rats (UHPLC-MS/MS, sulfatase enzymolysis); assay type: in vivo, rat; conditions: rat, in vivo; Control group (normal rats), single oral YCHD 12 g/kg, plasma
Readout label: Cmax (ng/mL)

[[record]]
molecule = "COC(=O)C1=CO[C@@H](O[C@@H]2O[C@H](CO)[C@@H](O)[C@H](O)[C@H]2O)[C@@H]2C(CO)=CC[C@H]12 [Geniposide]"
uom = "ng/mL"
endpoint_value = 524


* * *

experiment: Pharmacokinetic study of YCHD components and phase II metabolites in normal rats (UHPLC-MS/MS, sulfatase enzymolysis); type: in vivo, rat; conditions: rat, in vivo; Control group (normal rats), single oral YCHD 12 g/kg, plasma; read-out: CLz/F
Readout label: CL/F (L/h/kg)

[[record]]
compound = "COC(=O)C1=CO[C@@H](O[C@@H]2O[C@H](CO)[C@@H](O)[C@H](O)[C@H]2O)[C@@H]2C(CO)=CC[C@H]12 [Geniposide]"
readout_label = "CL/F"
uom = "L/h/kg"
endpoint_value = 7.32


* * *

assay: Pharmacokinetic study of YCHD components and phase II metabolites in ANIT-induced cholestatic rats (UHPLC-MS/MS, sulfatase enzymolysis); format: in vivo, rat; details: rat, in vivo, po, 12 g/kg
Readout label: Tmax

[[record]]
compound = "COC(=O)C1=CO[C@@H](O[C@@H]2O[C@H](CO)[C@@H](O)[C@H](O)[C@H]2O)[C@@H]2C(CO)=CC[C@H]12 [Geniposide]"
endpoint_value = "27 min"


* * *

assay: Pharmacokinetic study of YCHD components and phase II metabolites in ANIT-induced cholestatic rats (UHPLC-MS/MS, sulfatase enzymolysis); assay type: in vivo, rat; details: versus normal rats, oral YCHD 12 g/kg
Readout label: in vivo absorption and excretion processes in cholestatic rats (comparison of Ka and Ke)

[[record]]
compound = "O=C(O)c1cc(O)c2c(c1)C(=O)c1cccc(O)c1C2=O"
endpoint_value = "inhibited"

[[record]]
compound = "COC(=O)C1=COC(OC2OC(CO)C(O)C(O)C2O)C2C(CO)=CC(O)C12 (centres unmarked) [Scandoside methyl ester]"
endpoint_value = "inhibited"

[[record]]
compound = "CC(=O)c1ccc(O)cc1 [4-hydroxyacetophenone, 4-Hydroxyacetophenone]"
endpoint_value = "inhibited"

[[record]]
compound = "COC(=O)C1=CO[C@@H](O[C@@H]2O[C@H](CO)[C@@H](O)[C@H](O)[C@H]2O)[C@@H]2C(CO)=CC[C@H]12 [Geniposide]"
endpoint_value = "significantly enhanced"

[[record]]
compound = "O=C(O)C1=CO[C@@H](O[C@@H]2O[C@H](CO)[C@@H](O)[C@H](O)[C@H]2O)[C@@H]2C(CO)=CC[C@H]12"
endpoint_value = "significantly enhanced"


* * *

experiment: Pharmacokinetic study of YCHD components and phase II metabolites in ANIT-induced cholestatic rats (UHPLC-MS/MS, sulfatase enzymolysis); assay type: in vivo, rat; details: Sprague Dawley, rat, in vivo, po, 12 g/kg
Readout label: Cmax (ng/mL)

[[record]]
compound = "COC(=O)C1=COC(OC2OC(CO)C(O)C(O)C2O)C2C(CO)=CC(O)C12 (stereo not shown) [Scandoside methyl ester]"
readout_label = "Cmax"
uom = "ng/mL"
endpoint_value = 93.8


* * *

test: Pharmacokinetic study of YCHD components and phase II metabolites in normal rats (UHPLC-MS/MS, sulfatase enzymolysis); assay type: in vivo, rat; settings: Sprague Dawley, rat, in vivo; Control group (normal rats), single oral YCHD 12 g/kg, plasma
Readout label: Tmax (min)

[[record]]
compound = "COC(=O)C1=COC(OC2OC(CO)C(O)C(O)C2O)C2C(CO)=CC(O)C12 (stereo not shown) [Scandoside methyl ester]"
readout_label = "Tmax"
endpoint_value = 21


* * *

assay: Pharmacokinetic study of YCHD components and phase II metabolites in normal rats (UHPLC-MS/MS, sulfatase enzymolysis); type: in vivo, rat; details: rat, in vivo; Control group (normal rats), single oral YCHD 12 g/kg, plasma; read-out: MRT (0-∞) (converted)
Readout label: MRT inf (h)

[[record]]
compound = "COC(=O)C1=CO[C@@H](O[C@@H]2O[C@H](CO)[C@@H](O)[C@H](O)[C@H]2O)[C@@H]2C(CO)=CC[C@H]12 [Geniposide]"
readout_label = "MRT inf"
uom = "h"
endpoint_value = 3.36


* * *

assay: Pharmacokinetic study of YCHD components and phase II metabolites in ANIT-induced cholestatic rats (UHPLC-MS/MS, sulfatase enzymolysis); type: in vivo, rat; conditions: rat, in vivo, po, 12 g/kg
Readout label: Cmax

[[record]]
molecule = "COC(=O)C1=CO[C@@H](O[C@@H]2O[C@H](CO)[C@@H](O)[C@H](O)[C@H]2O)[C@@H]2C(CO)=CC[C@H]12 [Geniposide]"
readout_label = "Cmax"
endpoint_value = "578 ng/mL"


* * *

experiment: Pharmacokinetic study of YCHD components and phase II metabolites in ANIT-induced cholestatic rats (UHPLC-MS/MS, sulfatase enzymolysis); format: in vivo, rat; settings: rat, in vivo, po, 12 g/kg; read-out: MRT (0-∞) (converted)
Readout label: MRT inf

[[record]]
compound = "COC(=O)C1=CO[C@@H](O[C@@H]2O[C@H](CO)[C@@H](O)[C@H](O)[C@H]2O)[C@@H]2C(CO)=CC[C@H]12 [Geniposide]"
readout_label = "MRT inf"
endpoint_value = "7.5 h"


* * *

# AUC(0-∞) values compiled below
assay: Pharmacokinetic study of YCHD components and phase II metabolites in normal rats (UHPLC-MS/MS, sulfatase enzymolysis); format: in vivo, rat; details: Control group (normal rats), single oral YCHD 12 g/kg, plasma
Readout label: AUC(0-∞) (µg·min/L)

[[record]]
compound = "COC(=O)C1=COC(OC2OC(CO)C(O)C(O)C2O)C2C(CO)=CC(O)C12 (stereo not shown) [Scandoside methyl ester]"
endpoint_value = 233687.2

[[record]]
compound = "COC(=O)C1=CO[C@@H](O[C@@H]2O[C@H](CO)[C@@H](O)[C@H](O)[C@H]2O)[C@@H]2C(CO)=CC[C@H]12 [Geniposide]"
endpoint_value = 384279.8

[[record]]
compound = "O=C(O)/C=C/c1ccc(O)c(O)c1"
endpoint_value = 63847.8

[[record]]
compound = "O=C(O)C1=CO[C@@H](O[C@@H]2O[C@H](CO)[C@@H](O)[C@H](O)[C@H]2O)[C@@H]2C(CO)=CC[C@H]12"
endpoint_value = 1374849.8


* * *

Reported Tmax values are given for each entry in this list.
assay: Pharmacokinetic study of YCHD components and phase II metabolites in ANIT-induced cholestatic rats (UHPLC-MS/MS, sulfatase enzymolysis); assay type: in vivo, rat; conditions: rat, plasma, po, 12 g/kg
Readout label: Tmax (min)

[[record]]
compound = "O=C(O)c1cc(O)c2c(c1)C(=O)c1cccc(O)c1C2=O"
endpoint_value = 15

[[record]]
compound = "CC(=O)c1ccc(O)cc1 [4-hydroxyacetophenone, 4-Hydroxyacetophenone]"
endpoint_value = 15

[[record]]
compound = "O=C(/C=C/c1ccc(O)c(O)c1)O[C@@H]1C[C@](O)(C(=O)O)C[C@@H](O)[C@H]1O"
endpoint_value = 27


Cited source: paper PMC5962729
